Every entry's value here was drawn from the supplement of paper PMC11061612.

- Tested on: TOV-21G (Ovarian Carcinoma)
- test: combination Emax (second highest fraction inhibited in the dose matrix, 72 h); higher = more inhibition; extreme values may be limits of the assay
measured property: combination Emax
One number for each entry.

Consider the following illustrative entries.
- NC1(C(=O)N[C@@H](CCO)c2ccc(Cl)cc2)CCN(c2ncnc3[nH]ccc23)CC1 [Capivasertib] + COc1nnc2ccc(N3CCC(c4ccc(OCCN5CCN(C)C(=O)[C@H]5C)cc4)CC3)nn12 [AZD5153] (first compound max 10 µM, 7x7, partner max 1 µM): 0.892
- CC1(C)CCC(CN2CCN(c3ccc(C(=O)NS(=O)(=O)c4ccc(NCC5CCOCC5)c([N+](=O)[O-])c4)c(Oc4cnc5[nH]ccc5c4)c3)CC2)=C(c2ccc(Cl)cc2)C1 [Venetoclax] + Cc1cc2ncnn2cc1Nc1ncc2c(n1)n(C1CCOCC1)c(=O)n2C [AZD7648] (first compound max 1 µM, 7x7, partner max 10 µM): 0.195
- Cc1c2c(nn1C)CSCc1cc(n(C)n1)CSc1cc(c3ccccc3c1)OCCCc1c(C(=O)O)n(C)c3c-2c(Cl)ccc13 [AZD5991] + C=CCn1c(=O)c2cnc(Nc3ccc(N4CCN(C)CC4)cc3)nc2n1-c1cccc(C(C)(C)O)n1 [AZD1775] (first compound max 1 µM, partner max 1 µM): 0.732
- Cc1c2c(nn1C)CSCc1cc(n(C)n1)CSc1cc(c3ccccc3c1)OCCCc1c(C(=O)O)n(C)c3c-2c(Cl)ccc13 [AZD5991] + Cn1cnc2c(F)c(Nc3ccc(Br)cc3Cl)c(C(=O)NOCCO)cc21 [Selumetinib] (first compound max 1 µM, 7x7, partner max 3 µM): 0.335
- CN(C)CCCOc1ccc(-c2ccc3ncc4c(c3c2)n(C2CCOCC2)c(=O)n4C)cn1 [AZD0156] + C[C@@H]1COCCN1C2=NC(=NC(=C2)C3(CC3)[S@](=N)(=O)C)C4=C5C=CNC5=NC=C4 [AZD6738] (first compound max 1 µM, 7x7, partner max 10 µM): 0.652

Lab note: next compound to report on.
Inquiry: Entry under review: CCN(CCO)CCCOc1ccc2c(Nc3cc(CC(=O)Nc4cccc(F)c4)[nH]n3)ncnc2c1 [AZD2811] + C=CCn1c(=O)c2cnc(Nc3ccc(N4CCN(C)CC4)cc3)nc2n1-c1cccc(C(C)(C)O)n1 [AZD1775] (first compound max 1 µM, partner max 1 µM) . Reported combination Emax?
Reply text: 0.591
